target: BRD4 long (Homo sapiens, UniProt O60885); construct: endogenous in cells; host or cells: HEK293T; assay: BRD4 (long) degradation assay, Western blotting; format: cell-based; conditions: first value of cell (long/short)
readout.kind: DC50

Look over these answered cases.
{"columns": ["molecule", "readout.kind", "recorded.value"],
 "data": [
  ["COc1ccc(C(=O)/C=C/C(=O)N2CCN(C(=O)C[C@@H]3N=C(c4ccc(Cl)cc4)c4c(sc(C)c4C)-n4c(C)nnc43)CC2)cn1", "DC50", "10 to 100 nM"],
  ["COc1ccc(C(=O)/C=C/C(=O)NC2CC(NC(=O)C[C@@H]3N=C(c4ccc(Cl)cc4)c4c(sc(C)c4C)-n4c(C)nnc43)C2)cc1 (stereo partly drawn)", "DC50", "1 to 10 nM"],
  ["Cc1sc2c(c1C)C(c1ccc(Cl)cc1)=N[C@@H](CC(=O)N[C@H]1C[C@H](NC(=O)/C=C/C(=O)c3ccccc3)C1)c1nnc(C)n1-2", "DC50", "10 to 100 nM"]
]}

Record DC50 per entry; entries follow.
1. Cc1sc2c(c1C)C(c1ccc(Cl)cc1)=N[C@@H](CC(=O)N1CCN(C(=O)/C=C/C(=O)c3ccc(=O)n(C)c3)CC1)c1nnc(C)n1-2
2. COc1ccc(C(=O)/C=C/C(=O)N2CCC3(CCN(C(=O)C[C@@H]4N=C(c5ccc(Cl)cc5)c5c(sc(C)c5C)-n5c(C)nnc54)C3)C2)cc1 (stereo partly drawn)
3. COc1ccc(C(=O)/C(C)=C/C(=O)N2CCN(C(=O)C[C@@H]3N=C(c4ccc(Cl)cc4)c4c(sc(C)c4C)-n4c(C)nnc43)CC2)cc1
4. COc1ccc(C(=O)/C=C/C(=O)N2CCN(C(=O)C[C@@H]3N=C(c4ccc(Cl)cc4)c4c(sc(C)c4C)-n4c(C)nnc43)[C@H](C)C2)cc1
5. COc1ccc(C(=O)/C=C/C(=O)N2CC3CCC2CN3C(=O)C[C@@H]2N=C(c3ccc(Cl)cc3)c3c(sc(C)c3C)-n3c(C)nnc32)cc1 (stereo partly drawn)

80 nM
1 to 10 nM
> 1000 nM
< 10 nM
10 to 100 nM

Would you mind giving DC50 for every molecule in the list below?
1. COc1cccc(C(=O)/C=C/C(=O)N2CCN(C(=O)C[C@@H]3N=C(c4ccc(Cl)cc4)c4c(sc(C)c4C)-n4c(C)nnc43)CC2)c1
2. COc1ccc(/C=C/S(=O)(=O)N2CCN(C(=O)C[C@@H]3N=C(c4ccc(Cl)cc4)c4c(sc(C)c4C)-n4c(C)nnc43)CC2)cc1
3. COc1ccc(C(=O)/C=C/C(=O)N2CCN(C(=O)C[C@@H]3N=C(c4ccc(Cl)cc4)c4c(sc(C)c4C)-n4c(C)nnc43)C[C@@H]2C)cc1

< 100 nM
> 5000 nM
10 to 100 nM

Provide DC50 for all items below, preserving their order.
1. Cc1sc2c(c1C)C(c1ccc(Cl)cc1)=N[C@@H](CC(=O)N1CCN(C(=O)/C=C/C(=O)N3CCN(C)CC3)CC1)c1nnc(C)n1-2
2. COc1ccc(C(=O)/C=C/C(=O)N2[C@H](C)CN(C(=O)C[C@@H]3N=C(c4ccc(Cl)cc4)c4c(sc(C)c4C)-n4c(C)nnc43)C[C@@H]2C)cc1

["> 5000 nM", "< 10 nM"]

// each listed molecule needs a value for DC50
1. COc1ccc(C(=O)/C=C/C(=O)N2CCC3(CC2)CN(C(=O)C[C@@H]2N=C(c4ccc(Cl)cc4)c4c(sc(C)c4C)-n4c(C)nnc42)CCO3)cc1
2. COc1ccc(C(=O)/C=C/C(=O)N[C@H]2C[C@H](NC(=O)C[C@@H]3N=C(c4ccc(Cl)cc4)c4c(sc(C)c4C)-n4c(C)nnc43)C2)cc1
3. COc1ccc(C(=O)/C=C/C(=O)N2CCN(C(=O)C[C@@H]3N=C(c4ccc(Cl)cc4)c4c(sc(C)c4C)-n4c(C)nnc43)CC2)c(F)c1
4. Cc1sc2c(c1C)C(c1ccc(Cl)cc1)=N[C@@H](CC(=O)N[C@H]1C[C@H](NC(=O)/C=C/C(=O)N3CCOCC3)C1)c1nnc(C)n1-2

1: 10 to 100 nM; 2: 8 nM; 3: < 100 nM; 4: > 5000 nM

Record Cc1sc2c(c1C)C(c1ccc(Cl)cc1)=N[C@@H](CC(=O)N[C@H]1C[C@H](NC(=O)/C=C/C(=O)c3cccc(Cl)c3Cl)C1)c1nnc(C)n1-2 has BRD4 long (Homo sapiens, UniProt O60885) DC50 equal to 1000 to 5000 nM

The reported numbers originate from patent US20260200939A1.
